Where these numbers come from: ChEMBL document CHEMBL3632622

- protocolText: Antiproliferative activity against human HT1080 cells assessed as growth inhibition incubated for 48 hrs by sulforhodamine B assay
- Format: functional, cell-based, HT-1080
- conditionDetails: Homo sapiens, HT-1080, 48 h; read-out: IC50
Binarize IC50 at 2 µM; below is Y, at or above is N.

Completed entries (count: 5):
molSmiles: O=C(NCCCl)Nc1ccc(S(=O)(=O)Oc2c(Cl)cc(Cl)cc2Cl)cc1
discreteLabel: Y
--
molSmiles: O=C(NCCCl)Nc1ccc(S(=O)(=O)Oc2ccc(Br)cc2)cc1
discreteLabel: N
--
molSmiles: CCCc1ccc(OS(=O)(=O)c2ccc(NC(=O)NCCCl)cc2)cc1
discreteLabel: N
--
molSmiles: CC(C)c1ccccc1OS(=O)(=O)c1ccc(NC(=O)NCCCl)cc1
discreteLabel: Y
--
molSmiles: CCOc1cccc(OS(=O)(=O)c2ccc(NC(=O)NCCCl)cc2)c1
discreteLabel: N

Now examine the next entry.
Dear colleague, could you confirm whether IC50 of CCCc1ccccc1OS(=O)(=O)c1ccc(NC(=O)NCCCl)cc1 falls below 2 µM? Thanks.
Y

---

- protocolText: Antiproliferative activity against human HT1080 cells assessed as growth inhibition incubated for 48 hrs by sulforhodamine B assay
- Format: functional, cell-based, HT-1080
- conditionDetails: Homo sapiens, HT-1080, 48 h; read-out: IC50
Binarize IC50 at 8 µM; below is Met, at or above is Not met.

Completed entries (count: 6):
molSmiles: CC[C@@]1(O)C(=O)OCc2c1cc1n(c2=O)Cc2cc3c(CN(C)C)c(O)ccc3nc2-1
discreteLabel: Met

molSmiles: O=C(NCCCl)Nc1ccc(S(=O)(=O)Oc2ccccc2F)cc1
discreteLabel: Met

molSmiles: Cc1cc(OS(=O)(=O)c2ccc(NC(=O)NCCCl)cc2)cc(C)c1C
discreteLabel: Not met

molSmiles: O=C(NCCCl)Nc1ccc(S(=O)(=O)Oc2cc(Cl)cc(Cl)c2)cc1
discreteLabel: Met

molSmiles: Cc1cc(C)cc(OS(=O)(=O)c2ccc(NC(=O)NCCCl)cc2)c1
discreteLabel: Met

molSmiles: CCOc1ccccc1OS(=O)(=O)c1ccc(NC(=O)NCCCl)cc1
discreteLabel: Met

Dear colleague, could you confirm whether IC50 of O=C(NCCCl)Nc1ccc(S(=O)(=O)Oc2cccc(F)c2)cc1 falls below 8 µM? Thanks.
Met

Dear colleague, could you confirm whether IC50 of Cc1ccc(OS(=O)(=O)c2ccc(NC(=O)NCCCl)cc2)cc1 falls below 8 µM? Thanks.
Not met

Dear colleague, could you confirm whether IC50 of CCCCOc1ccc(OS(=O)(=O)c2ccc(NC(=O)NCCCl)cc2)cc1 falls below 8 µM? Thanks.
Met

Dear colleague, could you confirm whether IC50 of O=C(NCCCl)Nc1ccc(S(=O)(=O)Oc2cccc([N+](=O)[O-])c2)cc1 falls below 8 µM? Thanks.
Not met

Dear colleague, could you confirm whether IC50 of COc1ccc(OS(=O)(=O)c2ccc(NC(=O)NCCCl)cc2)cc1OC falls below 8 µM? Thanks.
Not met

Dear colleague, could you confirm whether IC50 of CCNC(=O)Nc1ccc(S(=O)(=O)Oc2ccccc2CC)cc1 falls below 8 µM? Thanks.
Met

Dear colleague, could you confirm whether IC50 of O=C(NCCCl)Nc1ccc(S(=O)(=O)Oc2ccc(F)cc2)cc1 falls below 8 µM? Thanks.
Not met

Dear colleague, could you confirm whether IC50 of N#Cc1ccc(OS(=O)(=O)c2ccc(NC(=O)NCCCl)cc2)cc1 falls below 8 µM? Thanks.
Not met

Dear colleague, could you confirm whether IC50 of COc1cccc(OS(=O)(=O)c2ccc(NC(=O)NCCCl)cc2)c1 falls below 8 µM? Thanks.
Met

Dear colleague, could you confirm whether IC50 of COc1cc(OC)cc(OS(=O)(=O)c2ccc(NC(=O)NCCCl)cc2)c1 falls below 8 µM? Thanks.
Met

Dear colleague, could you confirm whether IC50 of O=C(NCCCl)Nc1ccc(S(=O)(=O)Oc2cc(F)cc(F)c2)cc1 falls below 8 µM? Thanks.
Met

Dear colleague, could you confirm whether IC50 of O=C(NCCCl)Nc1ccc(S(=O)(=O)Oc2ccccc2)cc1 falls below 8 µM? Thanks.
Not met

Dear colleague, could you confirm whether IC50 of O=C(NCCCl)Nc1ccc(S(=O)(=O)Oc2ccccc2[N+](=O)[O-])cc1 falls below 8 µM? Thanks.
Met

Dear colleague, could you confirm whether IC50 of O=C(NCCCl)Nc1ccc(S(=O)(=O)Oc2cccc(I)c2)cc1 falls below 8 µM? Thanks.
Met

Dear colleague, could you confirm whether IC50 of Cc1ccc(C)c(OS(=O)(=O)c2ccc(NC(=O)NCCCl)cc2)c1 falls below 8 µM? Thanks.
Met
